Target: Wild-type RET kinase (Homo sapiens, UniProt P07949)
Sequence (P07949 29-1114): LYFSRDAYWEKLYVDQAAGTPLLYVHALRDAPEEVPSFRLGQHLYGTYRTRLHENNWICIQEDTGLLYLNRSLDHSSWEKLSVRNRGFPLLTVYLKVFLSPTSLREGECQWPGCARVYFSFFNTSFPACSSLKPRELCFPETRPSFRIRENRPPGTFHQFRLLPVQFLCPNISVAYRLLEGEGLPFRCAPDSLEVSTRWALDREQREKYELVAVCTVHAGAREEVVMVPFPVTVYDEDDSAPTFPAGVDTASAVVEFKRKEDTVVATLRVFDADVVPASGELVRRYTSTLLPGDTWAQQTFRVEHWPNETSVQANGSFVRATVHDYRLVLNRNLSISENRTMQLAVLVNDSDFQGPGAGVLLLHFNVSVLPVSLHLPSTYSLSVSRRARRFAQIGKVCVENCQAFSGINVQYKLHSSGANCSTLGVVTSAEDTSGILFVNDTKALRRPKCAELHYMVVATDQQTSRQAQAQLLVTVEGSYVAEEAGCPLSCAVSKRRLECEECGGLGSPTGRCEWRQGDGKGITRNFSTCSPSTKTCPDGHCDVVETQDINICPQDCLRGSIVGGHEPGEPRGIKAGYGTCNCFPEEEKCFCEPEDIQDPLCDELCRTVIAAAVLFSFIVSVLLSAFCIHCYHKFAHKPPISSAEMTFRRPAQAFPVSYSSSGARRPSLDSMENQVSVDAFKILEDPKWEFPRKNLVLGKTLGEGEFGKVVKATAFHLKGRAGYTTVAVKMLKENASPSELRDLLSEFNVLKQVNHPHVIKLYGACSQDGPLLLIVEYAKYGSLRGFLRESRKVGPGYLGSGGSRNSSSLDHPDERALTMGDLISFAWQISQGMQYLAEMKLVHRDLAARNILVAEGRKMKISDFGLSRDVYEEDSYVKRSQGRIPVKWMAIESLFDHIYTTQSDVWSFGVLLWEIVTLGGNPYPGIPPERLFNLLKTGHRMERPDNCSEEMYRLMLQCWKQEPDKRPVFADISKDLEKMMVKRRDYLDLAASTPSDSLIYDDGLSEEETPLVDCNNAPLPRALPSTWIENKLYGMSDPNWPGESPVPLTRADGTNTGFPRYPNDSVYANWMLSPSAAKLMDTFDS
Assay: HTRF method for testing the inhibitory activity of compounds against RET
Type: biochemical
Settings: HTRF; read-out: Wild-type RET kinase
reported endpoint: IC50 (nM)

// known answers, use as guide
compound	IC50 [nM]
COc1ccc(CN2CCN(c3ccc(-c4cc(-c5cnn(C)c5)cn5ncc(NC(C)=O)c45)cn3)CC2)cn1	6590
CCNc1cc(-c2ccc(N3CC4CC(C3)N4Cc3ccc(OC)nc3)nc2)c2c(C#N)cnn2c1	0.21

a: COc1ccc(CN2CCN(c3ccc(-c4cc(OCCN5CC6CCC5C6)cn5ncc(C#N)c45)cn3)CC2)cn1 (centres unmarked)
b: COc1ccc(CN2C3CC2CN(c2ccc(-c4cc(NCC5CCOCC5)cn5ncc(C#N)c45)cn2)C3)cn1
Lower value for measured IC50? Options: a , b Respond with the label that goes with your answer.
a

P: COc1ccc(CN2C3CC2CN(c2cnc(-c4cc(OCC5C[C@H]6CC[C@@H](C5)N6)cn5ncc(C#N)c45)cn2)C3)cn1 (some centres unmarked)
Q: COc1ccc(CN2C3CC2CN(c2cnc(-c4cc(OCCN5CCCC56CNC6)cn5ncc(C#N)c45)cn2)C3)cn1
Of P and Q , whose reported IC50 is the larger number? Respond with the label that goes with your answer.
Q
(Q: 1.35 nM, P: 0.86 nM)

1: COc1ccc(CN2CCN(c3ccc(-c4cc(OCCN5CCC6(CCOCC6)CC5)cn5ncc(C#N)c45)cn3)CC2)cn1
2: COc1ccc(CN2C3CC2CN(c2cnc(-c4cc(OCCN5CCC6(CCCO6)CC5)cn5ncc(C#N)c45)cn2)C3)cn1
Lower value for measured IC50? Options: 1 , 2 Respond with the label that goes with your answer.
1
(1: 1.6 nM, 2: 2.89 nM)

P: COc1ccc(CN2C3CC2CN(c2cnc(-c4cc(OCCN5CCC6(CCCCC6)CC5)cn5ncc(C#N)c45)cn2)C3)cn1
Q: COc1ccc(CN2C3CC2CN(c2cnc(-c4cc(OCCN5C6CCC5COC6)cn5ncc(C#N)c45)cn2)C3)cn1
Of P and Q , whose reported IC50 is the larger number? Respond with the label that goes with your answer.
P
(P: 2.19 nM, Q: 1.4 nM)

----------
Target: RET G810S kinase (Homo sapiens, UniProt P07949, G810S)
Sequence (P07949 29-1114 G810S): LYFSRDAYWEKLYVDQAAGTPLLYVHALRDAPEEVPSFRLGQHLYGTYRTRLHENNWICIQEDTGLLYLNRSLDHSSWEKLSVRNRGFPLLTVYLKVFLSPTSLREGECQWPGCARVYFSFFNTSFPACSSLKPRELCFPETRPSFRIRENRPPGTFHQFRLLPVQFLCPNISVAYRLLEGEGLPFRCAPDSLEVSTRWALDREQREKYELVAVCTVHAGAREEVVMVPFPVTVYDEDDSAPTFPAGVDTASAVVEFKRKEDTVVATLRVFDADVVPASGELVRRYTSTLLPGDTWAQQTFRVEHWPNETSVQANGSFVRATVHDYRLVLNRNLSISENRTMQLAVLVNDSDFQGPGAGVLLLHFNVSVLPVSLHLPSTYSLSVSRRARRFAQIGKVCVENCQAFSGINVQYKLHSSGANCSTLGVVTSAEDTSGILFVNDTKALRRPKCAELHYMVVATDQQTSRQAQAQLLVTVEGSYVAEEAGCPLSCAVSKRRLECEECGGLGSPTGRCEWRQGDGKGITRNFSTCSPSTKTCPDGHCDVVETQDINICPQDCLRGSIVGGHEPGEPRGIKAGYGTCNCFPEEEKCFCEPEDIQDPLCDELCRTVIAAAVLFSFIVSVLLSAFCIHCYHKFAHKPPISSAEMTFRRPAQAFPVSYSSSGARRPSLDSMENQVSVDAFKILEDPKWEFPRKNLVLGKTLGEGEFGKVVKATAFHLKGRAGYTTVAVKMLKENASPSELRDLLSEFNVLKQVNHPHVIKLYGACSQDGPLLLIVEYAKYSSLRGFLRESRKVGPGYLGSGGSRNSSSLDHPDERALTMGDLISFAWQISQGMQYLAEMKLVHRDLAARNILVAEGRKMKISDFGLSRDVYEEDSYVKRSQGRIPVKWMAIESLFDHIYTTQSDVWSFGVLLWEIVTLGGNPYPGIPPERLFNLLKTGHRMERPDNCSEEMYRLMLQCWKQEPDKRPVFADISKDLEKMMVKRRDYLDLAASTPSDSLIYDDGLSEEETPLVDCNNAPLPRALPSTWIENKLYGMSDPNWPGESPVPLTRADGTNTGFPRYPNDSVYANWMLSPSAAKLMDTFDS
Assay: HTRF method for testing the inhibitory activity against RET G810S
Conditions: HTRF
reported endpoint: IC50 (nM)
Give the value in nM but do not write nM after it.

compound	IC50 [nM]
COc1ccc(CN2C3CC2CN(c2ccc(-c4cc(N5CCOCC5)cn5ncc(C#N)c45)cn2)C3)cn1 [Compound 70]	10.4
CNc1cc(-c2ccc(N3CC4CC(C3)N4Cc3ccc(OC)nc3)nc2)c2c(C#N)cnn2c1 [Compound 47]	1.23

// next item, IC50 requested
Param item = COc1ccc(CN2C3CC2CN(c2ccc(-c4cc(NCCF)cn5ncc(C#N)c45)cn2)C3)cn1 [Compound 49] ; retrieve measured IC50.
0.53

----------
Molecular target: VEGFR2 kinase (Homo sapiens, UniProt P35968)
Sequence (P35968 20-1356): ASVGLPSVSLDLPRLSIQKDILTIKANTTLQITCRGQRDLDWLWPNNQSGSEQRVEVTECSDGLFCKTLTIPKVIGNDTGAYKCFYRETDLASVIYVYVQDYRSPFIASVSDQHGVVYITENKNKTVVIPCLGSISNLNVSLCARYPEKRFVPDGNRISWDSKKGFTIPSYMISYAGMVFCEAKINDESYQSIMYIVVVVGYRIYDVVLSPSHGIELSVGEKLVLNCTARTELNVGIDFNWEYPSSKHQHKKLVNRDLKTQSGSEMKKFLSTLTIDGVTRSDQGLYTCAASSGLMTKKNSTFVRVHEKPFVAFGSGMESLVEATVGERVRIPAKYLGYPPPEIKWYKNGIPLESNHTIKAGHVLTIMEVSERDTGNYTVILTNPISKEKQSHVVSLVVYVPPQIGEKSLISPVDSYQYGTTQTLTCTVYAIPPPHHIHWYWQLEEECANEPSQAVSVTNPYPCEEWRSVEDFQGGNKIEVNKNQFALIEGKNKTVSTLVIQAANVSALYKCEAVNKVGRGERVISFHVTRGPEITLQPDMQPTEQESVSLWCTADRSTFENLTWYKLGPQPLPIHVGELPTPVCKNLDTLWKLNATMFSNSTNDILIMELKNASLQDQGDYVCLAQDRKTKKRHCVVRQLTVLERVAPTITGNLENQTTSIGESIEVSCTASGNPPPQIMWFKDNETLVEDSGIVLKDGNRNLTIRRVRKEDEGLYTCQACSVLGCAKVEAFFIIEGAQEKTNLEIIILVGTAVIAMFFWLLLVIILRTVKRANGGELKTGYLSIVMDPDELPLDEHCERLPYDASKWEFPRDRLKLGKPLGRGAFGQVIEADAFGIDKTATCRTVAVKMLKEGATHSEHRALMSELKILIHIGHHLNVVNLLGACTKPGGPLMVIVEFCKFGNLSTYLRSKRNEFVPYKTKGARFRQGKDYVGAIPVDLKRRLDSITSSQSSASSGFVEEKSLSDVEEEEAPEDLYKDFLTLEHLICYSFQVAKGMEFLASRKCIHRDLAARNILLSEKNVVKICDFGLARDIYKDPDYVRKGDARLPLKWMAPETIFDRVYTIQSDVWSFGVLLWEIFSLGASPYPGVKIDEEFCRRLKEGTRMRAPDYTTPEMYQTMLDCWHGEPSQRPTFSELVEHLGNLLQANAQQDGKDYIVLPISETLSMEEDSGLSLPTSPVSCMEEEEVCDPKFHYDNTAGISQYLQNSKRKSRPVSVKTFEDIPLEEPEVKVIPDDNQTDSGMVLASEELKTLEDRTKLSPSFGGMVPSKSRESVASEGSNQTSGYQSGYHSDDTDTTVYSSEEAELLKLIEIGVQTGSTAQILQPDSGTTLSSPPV
reported endpoint: IC50 (nM)
Give the value in nM but do not write nM after it.

// known answers, use as guide
compound	reported endpoint	unit tag	reported result
COc1ccc(CN2C3CC2CN(c2ccc(-c4cc(NCC(C)(C)O)cn5ncc(C#N)c45)cn2)C3)cn1 [Compound 63]	IC50	nM	65.2
COc1ccc(CN2C3CC2CN(c2ccc(-c4cc(NCCF)cn5ncc(C#N)c45)cn2)C3)cn1 [Compound 49]	IC50	nM	28.4

// next item, IC50 requested
What measured IC50 is associated with COc1ccc(CN2C3CC2CN(c2ccc(-c4cc(NCCO)cn5ncc(C#N)c45)cn2)C3)cn1 [Compound 51] on VEGFR2 kinase (Homo sapiens, UniProt P35968)?
19.3

Taken from patent US20230219979A1.
